The reported numbers originate from ChEMBL document CHEMBL1156573.

target system: Cannabinoid receptor 2 (Homo sapiens, UniProt P34972)
Sequence (P34972 whole entry): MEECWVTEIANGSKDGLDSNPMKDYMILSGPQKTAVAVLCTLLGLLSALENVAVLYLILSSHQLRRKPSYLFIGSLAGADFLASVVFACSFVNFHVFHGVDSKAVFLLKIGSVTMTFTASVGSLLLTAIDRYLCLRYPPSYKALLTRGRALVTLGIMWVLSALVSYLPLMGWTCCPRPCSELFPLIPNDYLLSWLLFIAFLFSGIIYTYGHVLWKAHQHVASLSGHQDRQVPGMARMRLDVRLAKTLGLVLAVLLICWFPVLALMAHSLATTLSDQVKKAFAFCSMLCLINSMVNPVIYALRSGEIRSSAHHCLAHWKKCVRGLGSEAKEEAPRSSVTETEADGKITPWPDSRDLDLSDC
assay notes: Displacement of [3H](R)-3-methyl-2-(3-(morpholinomethyl)-3,4-dihydro-2H-benzo[b][1,4]oxazin-5-yl)-1-(naphthalen-1-yl)but-2-en-1-one from human CB2 receptor expressed in CHO cells at 10 uM by liquid scintillation counting
Format: cell-based
Activity reference
Provide the reading as a plain figure in %.

| cpd smiles | unit text | Activity |
| --- | --- | --- |
| O=C(Cc1ccccc1)N/N=C1\C(=O)N(CCC2CCCCC2)c2ccccc21 | % | 47.2 |
| CCCCCCN1C(=O)/C(=N\NC(=O)c2ccccc2)c2ccccc21 | % | 92.8 |
| CCCCCCN1C(=O)/C(=N\NC(=O)Cc2ccccc2)c2ccccc21 | % | 91.5 |
| CCCCCCN1C(=O)/C(=N\NC(=S)Nc2ccccc2)c2ccccc21 | % | 37.7 |

Problem: Quote Cannabinoid receptor 2 (Homo sapiens, UniProt P34972) Activity for entry `O=C(N/N=C1\C(=O)N(CCC2CCCCC2)c2ccccc21)c1ccccc1` .
Solution: 79.8
